# Tested on: LPS-stimulated IL-1β release from PBMCs from normal subjects
# procedure_text: LPS-stimulated IL-1β release from PBMCs of healthy controls
# Format: cell-based
# protocol_conditions: Homo sapiens, PBMC, 10 ng/ml LPS, 24 hours, compound 0.03-30 μM, ELISA, FIG. 1A, read-out: IC50 for inhibition of LPS-stimulated IL-1β release
measurement_name: IC50

> print(dat)
                                   molecule    result
1  CCO[C@@H]1OC(=O)C[C@@H]1NC(=O)[C@@H]1CCCN1C(=O)[C@@H](NC(=O)c1ccc(N)c(Cl)c1)C(C)(C)C  ~1000 nM
